The values you see were collected from PubChem BioAssay AID743409.

Reported inhibition values follow for various compounds
# measured target: Phospholipase D2 (Homo sapiens)
# assay name: inhibitors of cellular PLD2 activity, cell-based (AID 743409)
# condition context: cellular PLD2 isoenzyme activity, at 2 µM, hits give high values
# unit: % | format: bare number

Use these answered entries as a reference point.
smiles structure: O=C(NCCN1CCC2(CC1)C(=O)NCN2Cc1cccnc1)c1ccc(SC(F)(F)F)cc1
measured target: Phospholipase D2 (Homo sapiens)
measurement units: %
inhibition: 8

smiles structure: O=C(NCCN1CCC2(CC1)C(=O)NCN2Cc1cccnc1)c1nccc2ccccc12
measured target: Phospholipase D2 (Homo sapiens)
measurement units: %
inhibition: 32

smiles structure: O=C(NCCN1CCC2(CC1)C(=O)NCN2Cc1cccnc1)c1ccc2c(c1)C(=O)NC2=O
measured target: Phospholipase D2 (Homo sapiens)
measurement units: %
inhibition: 0

smiles structure: O=C(NCCN1CCC2(CC1)C(=O)NCN2Cc1cccnc1)c1ccc(F)cc1C(F)(F)F
measured target: Phospholipase D2 (Homo sapiens)
measurement units: %
inhibition: 0

smiles structure: O=C(NCCN1CCC2(CC1)C(=O)NCN2Cc1cccnc1)c1ccnc2ccccc12
measured target: Phospholipase D2 (Homo sapiens)
measurement units: %
inhibition: 0

smiles structure: O=C(NCCN1CCC2(CC1)C(=O)NCN2Cc1cccnc1)c1c(F)ccc(Cl)c1F
measured target: Phospholipase D2 (Homo sapiens)
measurement units: %
inhibition: 18

(Q) Reported inhibition, compound Cn1c(C(=O)NCCN2CCC3(CC2)C(=O)NCN3Cc2cccnc2)cc2ccccc21 : ____
(A) 14

(Q) Can you handle O=C(NCCN1CCC2(CC1)C(=O)NCN2Cc1cccnc1)c1cc2ccccc2o1 next?
(A) 73

###

# measured target: Phospholipase D2 (Homo sapiens) (UniProt O14939)
# Sequence (O14939 whole entry, looked up): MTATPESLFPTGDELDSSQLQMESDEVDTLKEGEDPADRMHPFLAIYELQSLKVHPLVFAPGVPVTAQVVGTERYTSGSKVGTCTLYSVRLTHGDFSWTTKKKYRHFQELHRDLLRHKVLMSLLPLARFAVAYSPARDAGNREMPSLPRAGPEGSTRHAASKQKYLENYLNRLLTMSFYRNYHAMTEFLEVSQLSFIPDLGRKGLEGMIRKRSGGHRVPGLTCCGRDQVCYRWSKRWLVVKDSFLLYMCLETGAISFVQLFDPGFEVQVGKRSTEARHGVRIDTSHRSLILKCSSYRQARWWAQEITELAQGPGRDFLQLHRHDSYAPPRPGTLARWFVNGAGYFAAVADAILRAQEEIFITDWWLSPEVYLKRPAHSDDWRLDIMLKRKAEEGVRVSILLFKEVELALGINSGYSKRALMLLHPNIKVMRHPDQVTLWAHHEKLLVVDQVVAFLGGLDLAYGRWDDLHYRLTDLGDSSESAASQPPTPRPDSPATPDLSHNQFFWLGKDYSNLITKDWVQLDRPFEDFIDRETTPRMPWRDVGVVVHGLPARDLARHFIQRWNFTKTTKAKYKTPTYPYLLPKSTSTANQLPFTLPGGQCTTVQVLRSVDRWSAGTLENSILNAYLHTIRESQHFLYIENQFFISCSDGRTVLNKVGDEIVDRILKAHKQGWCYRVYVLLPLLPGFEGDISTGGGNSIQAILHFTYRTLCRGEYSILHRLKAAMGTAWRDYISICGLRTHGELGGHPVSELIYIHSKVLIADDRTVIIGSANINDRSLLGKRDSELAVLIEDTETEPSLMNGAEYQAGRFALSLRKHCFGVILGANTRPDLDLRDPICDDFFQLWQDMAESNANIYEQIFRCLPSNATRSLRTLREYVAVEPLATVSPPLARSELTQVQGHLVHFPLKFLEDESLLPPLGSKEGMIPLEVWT
# assay name: inhibitors of cellular PLD2 activity, cell-based (AID 743409)
# condition context: cellular PLD2 isoenzyme activity, at 2 µM, hits give high values
Reported inhibition values follow for various compounds
# unit: % | format: bare number

smiles structure: O=C(NCCN1CCC2(CC1)C(=O)NCN2Cc1cccnc1)c1nc(-c2ccc(F)cc2)no1
measured target: Phospholipase D2 (Homo sapiens) (UniProt O14939)
measurement units: %
experimental result: 17
//
smiles structure: O=C(NCCN1CCC2(CC1)C(=O)NCN2c1cncc(F)c1)c1cc(F)c(F)c(F)c1
measured target: Phospholipase D2 (Homo sapiens) (UniProt O14939)
measurement units: %
experimental result: 2
//
smiles structure: O=C(NCCN1CCC2(CC1)C(=O)NCN2c1cncc(F)c1)c1ccc2ccccc2c1
measured target: Phospholipase D2 (Homo sapiens) (UniProt O14939)
measurement units: %
experimental result: 18
//
smiles structure: O=C(NCCN1CCC2(CC1)C(=O)NCN2Cc1cccnc1)c1cc(F)cc(F)c1
measured target: Phospholipase D2 (Homo sapiens) (UniProt O14939)
measurement units: %
experimental result: 4
//
smiles structure: O=C(NCCN1CCC2(CC1)C(=O)NCN2c1cccnc1)c1ccc2ccccc2c1
measured target: Phospholipase D2 (Homo sapiens) (UniProt O14939)
measurement units: %
experimental result: 0

(Q) Reported inhibition, compound O=C(NCCN1CCC2(CC1)C(=O)NCN2Cc1cccnc1)c1ccc2cc(F)ccc2c1 : ____
(A) 36

(Q) Can you handle O=C(NCCN1CCC2(CC1)C(=O)NCN2c1ccnc(Cl)c1)c1ccc2ccccc2c1 next?
(A) 11

(Q) Can you handle O=C(NCCN1CCC2(CC1)C(=O)NCN2Cc1cccnc1)c1ccc(F)cc1F next?
(A) 0

(Q) Can you handle O=C(NCCN1CCC2(CC1)C(=O)NCN2Cc1cccnc1)c1cccc2cccnc12 next?
(A) 42
